// reported CC50 at 24 h per item
protocol.description: Cytotoxicity against LPS/IFNgamma induced mouse RAW264.7 cells assessed as inhibition of cell growth preincubated for 24 hrs followed by LPS/IFNgamma stimulation and measured after 24 hrs by SRB assay
Format: toxicity, cell-based
recorded.conditions: RAW264.7 cells induced with LPS/IFNgamma, time 48 hrs

compound | CC50 at 24 h
C[C@@]12C(=O)OC(=O)[C@]1(C)[C@H]1CC[C@@H]2O1 | 3.88 µM
Brc1cc2c(cc1Br)C1C=CC2O1 | > 200 µM
COc1ccc(C#CC2CC3OC2c2cc(Br)c(Br)cc23)cc1 (stereo unspecified) | 198 µM
COc1ccc(C#CC2CC3OC2c2ccccc23)cc1 (stereo unspecified) | 191 µM
CC(C)(C)OC(=O)C1=C(C(=O)OC(C)(C)C)C2C=CC1O2 | 12.8 µM
COC(=O)C1=C(C(=O)OC)C2OC1CC2C#Cc1ccccc1OC (stereo unspecified) | 5.46 µM

====

protocol.description: Cytotoxicity against TNF-alpha induced HEK293T cells assessed as inhibition of cell growth preincubated for 24 hrs followed by TNFalpha stimulation and measured after 4 hrs by SRB assay
Assay type: toxicity, cell-based, HEK-293T
recorded.conditions: human, HEK293T cells induced with TNF-alpha; time 28 hrs
// reported CC50 at 4 h per item

compound | relation.qualifier | CC50 at 4 h / µM
COc1ccc(C#CC2CC3OC2c2ccccc23)cc1 (stereo not given) | = | 181
COc1ccc(C#CC2CC3OC2c2cc(OC)c(OC)cc23)cc1 (stereo not given) | = | 198
O=C1OC(=O)C2C3CCC(O3)C12 (stereo not given) [DEMETHYL-CANTHARIDIN] | > | 200
CC(C)(C)OC(=O)C1=C(C(=O)OC(C)(C)C)C2C=CC1O2 | = | 80.3
COc1ccc(OC)c2c1C1C=CC2O1 | = | 118

====

protocol.description: Selectivity index, ratio of CC50 for cytotoxicity against LPS/IFNgamma induced mouse RAW264.7 cells to IC50 for antiinflammatory activity in mouse RAW264.7 cells assessed as inhibition in LPS/IFNgamma-induced NO production
Format: toxicity, cell-based
recorded.conditions: RAW264.7 cells induced with LPS/IFNgamma, read-out: Ratio IC50
Mark true (1) for selectivity ratio under 1, false (0) if at or over.

molecule | assigned.category
COC(=O)C1=C(C(=O)OC)C2OC1CC2C#Cc1ccc(F)cc1 (stereo unspecified) | false (0)
COC(=O)C1=C(C(=O)OC)C2OC1CC2C#Cc1cc(OC)cc(OC)c1 (stereo unspecified) | false (0)
O=C1OC(=O)C2C3CCC(O3)C12 (stereo unspecified) [DEMETHYL-CANTHARIDIN] | true (1)
COC(=O)C1=C(C(=O)OC)C2C=CC1O2 | false (0)
CCOC(=O)C1=C(C(=O)OCC)C2OC1CC2C#Cc1ccc(OC)cc1 (stereo unspecified) | false (0)
C[C@@]12C(=O)OC(=O)[C@]1(C)[C@H]1CC[C@@H]2O1 [CANTHARIDIN] | true (1)
CSC(=N)N | false (0)
COc1ccc(C#CC2CC3OC2c2cc(Br)c(Br)cc23)cc1 (stereo unspecified) | false (0)
COC(=O)C1=C(C(=O)OC)C2OC1CC2C#Cc1ccc(Br)cc1 (stereo unspecified) | false (0)
COC(=O)C1=C(C(=O)OC)C2OC1CC2C#Cc1ccc(Cl)cc1 (stereo unspecified) | false (0)
CC(C)(C)OC(=O)C1=C(C(=O)OC(C)(C)C)C2C=CC1O2 | false (0)

====

protocol.description: Cytotoxicity against TNF-alpha induced HEK293T cells assessed as inhibition of cell growth preincubated for 24 hrs followed by TNFalpha stimulation and measured after 4 hrs by SRB assay
Assay type: toxicity, cell-based, HEK-293T
recorded.conditions: human, HEK293T cells induced with TNF-alpha; time 28 hrs
Mark y for CC50 at 4 h under 50 µM, n if at or over.

compound | assigned.category
C[C@@H]1C[C@H]2[C@@H]3CCC4=CC(=O)C=C[C@]4(C)[C@@]3(F)[C@@H](O)C[C@]2(C)[C@@]1(O)C(=O)CO | n
COC(=O)C1=C(C(=O)OC)C2OC1CC2C#Cc1ccc(OC)cc1 (stereo unspecified) | y
Brc1cc2c(cc1Br)C1C=CC2O1 | n
COC(=O)C1=C(C(=O)OC)C2OC1CC2C#Cc1ccc(Br)cc1 (stereo unspecified) | y
COC(=O)C1=C(C(=O)OC)C2OC1CC2C#Cc1ccccc1OC (stereo unspecified) | y
COC(=O)C1=C(C(=O)OC)C2C=CC1O2 | n
COC(=O)C1=C(C(=O)OC)C2OC1CC2C#Cc1cc(OC)cc(OC)c1 (stereo unspecified) | y
COC(=O)C1=C(C(=O)OC)C2OC1CC2C#Cc1ccc(C)cc1 (stereo unspecified) | n
COC(=O)C1=C(C(=O)OC)C2OC1CC2C#Cc1ccccc1 (stereo unspecified) | n
CCOC(=O)C1=C(C(=O)OCC)C2OC1CC2C#Cc1ccc(OC)cc1 (stereo unspecified) | n
C1=CC2OC1c1ccccc12 | n

====

protocol.description: Cytotoxicity against TNF-alpha induced HEK293T cells assessed as inhibition of cell growth preincubated for 24 hrs followed by TNFalpha stimulation and measured after 4 hrs by SRB assay
Type: toxicity, cell-based, HEK-293T
recorded.conditions: human, HEK293T cells induced with TNF-alpha; time 28 hrs

compound | CC50 at 4 h, µM
COC(=O)C1=C(C(=O)OC)C2OC1CC2C#Cc1ccc(Cl)cc1 (stereo unspecified) | 20.9
COc1cc2c(cc1OC)C1C=CC2O1 | 114
COc1ccc(C#CC2CC3OC2c2cc(Br)c(Br)cc23)cc1 (stereo unspecified) | 140
COc1ccc(C#CC2CC3OC2c2c(OC)ccc(OC)c23)cc1 (stereo unspecified) | 199
COC(=O)C1=C(C(=O)OC)C2OC1CC2C#Cc1ccc(F)cc1 (stereo unspecified) | 26.5
CCOC(=O)C1=C(C(=O)OCC)C2C=CC1O2 | 59.9

====

protocol.description: Selectivity index, ratio of CC50 for cytotoxicity against TNF-alpha induced HEK293T cells to IC50 for inhibition of TNF-alpha induced NF-kappaB activation in HEK293T cells
Assay type: toxicity, cell-based
recorded.conditions: human, HEK293T cells induced with TNF-alpha; read-out: Ratio IC50
Outcome label depends on selectivity ratio relative to 1: at/above gives T, below gives F.

molecule | assigned.category
COc1ccc(C#CC2CC3OC2c2c(OC)ccc(OC)c23)cc1 (stereo not given) | T
COc1cc2c(cc1OC)C1C=CC2O1 | T
Brc1cc2c(cc1Br)C1C=CC2O1 | T
COC(=O)C1=C(C(=O)OC)C2OC1CC2C#Cc1ccc(OC)cc1 (stereo not given) | F
COC(=O)C1=C(C(=O)OC)C2C=CC1O2 | T

====

protocol.description: Cytotoxicity against human HCT-116 cells assessed as inhibition in cell proliferation
Assay type: toxicity, cell-based

compound | IC50, µM
COC(=O)C1=C(C(=O)OC)C2OC1CC2C#Cc1ccc(C)cc1 (stereo unspecified) | 14.3

====

protocol.description: Selectivity index, ratio of CC50 for cytotoxicity against LPS/IFNgamma induced mouse RAW264.7 cells to IC50 for antiinflammatory activity in mouse RAW264.7 cells assessed as inhibition in LPS/IFNgamma-induced NO production
Type: toxicity, cell-based
recorded.conditions: RAW264.7 cells induced with LPS/IFNgamma, read-out: Ratio IC50
observation.type: selectivity ratio

compound | numeric.readout
COC(=O)C1=C(C(=O)OC)C2OC1CC2C#Cc1ccc(OC)cc1 (stereo not drawn) | 4.15
COc1ccc(C#CC2CC3OC2c2c(OC)ccc(OC)c23)cc1 (stereo not drawn) | 1.05
CCOC(=O)C1=C(C(=O)OCC)C2C=CC1O2 | 5.28

====

protocol.description: Cytotoxicity against LPS/IFNgamma induced mouse RAW264.7 cells assessed as inhibition of cell growth preincubated for 24 hrs followed by LPS/IFNgamma stimulation and measured after 24 hrs by SRB assay
Type: toxicity, cell-based
recorded.conditions: RAW264.7 cells induced with LPS/IFNgamma, time 48 hrs
// reported CC50 at 24 h per item

compound | relation.qualifier | CC50 at 24 h, µM
COc1ccc(OC)c2c1C1C=CC2O1 | > | 200
COc1cc2c(cc1OC)C1C=CC2O1 | > | 200
CSC(=N)N | > | 200
COC(=O)C1=C(C(=O)OC)C2C=CC1O2 | = | 12.8
C1=CC2OC1c1ccccc12 | > | 200
COC(=O)C1=C(C(=O)OC)C2OC1CC2C#Cc1cc(OC)cc(OC)c1 (centres undefined) | = | 5.06
COC(=O)C1=C(C(=O)OC)C2OC1CC2C#Cc1ccc(Cl)cc1 (centres undefined) | = | 5.23
COc1ccc(C#CC2CC3OC2c2c(OC)ccc(OC)c23)cc1 (centres undefined) | = | 200
O=C1OC(=O)C2C3CCC(O3)C12 (centres undefined) | = | 78.1
